- Read-out: Thrombomodulin, THBD (gene 7056)
- Assay Remarks: BSK_3C_Thrombomodulin: BioMAP Diversity Plus: 3C Assay for Thrombomodulin Biomarker Activity (AID 2283029)
- Condition: primary human endothelial cells (HUVEC); actives raise or lower the signal
- Method: BSK_3C is a cell-based, multiplexed-readout assay that uses umbilical vein endothelium, a human vascular primary cell, with measurements taken at 24 hours after chemical dosing in a 96-well plate.BSK_3C_Thrombomodulin is an assay component measured in the BSK_3C assay. It measures Thrombomodulin antibody related to regulation of gene expression using ELISA technology.Data from the assay component BSK_3C_Thrombomodulin was analyzed into 1 assay endpoint. […]
Activity calls are given as the source filed them. The calls were made as follows: active = hit-call score of the fitted dose curve at least 0.9, where 1 is the maximum; inactive = score below 0.9.
Outcomes: Yes = active, No = inactive

molecule_smiles=CC1(C)C2=CCCC(C)(C)[C@]23CC[C@H]1C3 assigned_class=No
molecule_smiles=CN(c1nccc(=O)[nH]1)C1CCN(c2nc3ccccc3n2Cc2ccc(F)cc2)CC1 assigned_class=No
molecule_smiles=O=C1OC2(c3ccccc31)c1ccc(O)c(Br)c1Oc1c2ccc(O)c1Br assigned_class=Yes
molecule_smiles=COc1ccc(OC)c(N=Nc2c(O)ccc3ccccc23)c1 assigned_class=Yes
molecule_smiles=O=C(Nc1ccc2c(O)c(N=Nc3ccc(N=Nc4ccc(S(=O)(=O)O)cc4)cc3)c(S(=O)(=O)O)cc2c1)c1ccccc1 assigned_class=No
molecule_smiles=CS(=O)(=O)OCCCCOS(C)(=O)=O assigned_class=No
molecule_smiles=CCN(CC)C(=O)N(CC)CC assigned_class=No
molecule_smiles=Clc1cc(Cl)c(-c2c(Cl)c(Cl)cc(Cl)c2Cl)cc1Cl assigned_class=No
molecule_smiles=CC(=O)c1c(C)c([N+](=O)[O-])c(C(C)(C)C)c([N+](=O)[O-])c1C assigned_class=No
molecule_smiles=COc1ccc(CCN2CCC(Nc3nc4ccccc4n3Cc3ccc(F)cc3)CC2)cc1 assigned_class=No
molecule_smiles=Oc1c(Cl)cc(Cl)c(Cl)c1Cc1c(O)c(Cl)cc(Cl)c1Cl assigned_class=No

---

- Read-out: Interleukin-8 (IL8), CXCL8 (gene 3576)
- Assay Remarks: BSK_SAg_IL8: BioMAP Diversity Plus: SAg Assay for Interleukin-8 (IL8) Biomarker Activity (AID 2283094)
- Condition: primary human HUVEC with PBMC; actives raise or lower the signal
Calls of active or inactive are those of the source. How the source made its calls: active means hit-call score of the fitted dose curve at least 0.9, where 1 is the maximum; inactive means score below 0.9.
Outcome codes: active, inactive

molecule_smiles=COc1ccc(CCN2CCC(Nc3nc4ccccc4n3Cc3ccc(F)cc3)CC2)cc1 assigned_class=active
molecule_smiles=Clc1cc(Cl)c(-c2c(Cl)c(Cl)cc(Cl)c2Cl)cc1Cl assigned_class=active
molecule_smiles=COc1ccc(OC)c(N=Nc2c(O)ccc3ccccc23)c1 assigned_class=inactive
molecule_smiles=COc1cc(Cl)c(OC)cc1N assigned_class=inactive

---

- System Under Test: human Norepinephrine Transporter (NET), SLC6A2 (gene 6530) (UniProt P23975)
- Sequence (P23975 whole entry, looked up): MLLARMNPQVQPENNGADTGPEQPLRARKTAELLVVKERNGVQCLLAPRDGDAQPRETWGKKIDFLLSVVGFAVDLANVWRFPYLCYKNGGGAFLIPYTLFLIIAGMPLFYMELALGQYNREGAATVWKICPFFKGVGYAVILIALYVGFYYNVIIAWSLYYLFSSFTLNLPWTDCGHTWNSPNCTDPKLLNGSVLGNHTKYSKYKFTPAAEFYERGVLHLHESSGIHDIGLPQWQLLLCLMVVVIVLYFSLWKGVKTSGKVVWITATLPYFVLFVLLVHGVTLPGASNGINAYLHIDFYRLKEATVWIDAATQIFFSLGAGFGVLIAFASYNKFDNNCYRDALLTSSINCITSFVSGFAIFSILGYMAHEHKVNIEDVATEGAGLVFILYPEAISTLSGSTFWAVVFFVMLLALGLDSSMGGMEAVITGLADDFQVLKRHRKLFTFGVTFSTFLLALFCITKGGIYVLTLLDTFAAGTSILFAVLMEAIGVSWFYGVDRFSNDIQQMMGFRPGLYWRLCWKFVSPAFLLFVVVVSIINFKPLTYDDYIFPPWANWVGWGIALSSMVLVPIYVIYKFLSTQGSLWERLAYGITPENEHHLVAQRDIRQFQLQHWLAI
- Assay Remarks: NVS_TR_hNET: NovaScreen (NVS) Transporter Assay for human Norepinephrine Transporter (NET) (AID 2283377);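 also: cell-free membrane protein extracted from CHO cells expressing human NET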;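 as to AC50: displacement of radioligand from human NET seen as loss of scintillation signal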
Inconclusive results are not listed. Active and inactive are the calls of the source. The calls were made as follows: active = hit-call score of the fitted dose curve at least 0.9, where 1 is the maximum; inconclusive = response in the unintended direction; inactive = score below 0.9.
Property Measured: AC50

compound=CC=Cc1ccc(OCC)c(O)c1 result="5.31 µM (active)"
compound="CCCC(O)C(O)CO (stereo not drawn)" result=inactive
compound=COc1ccc(OC)c(N=Nc2c(O)ccc3ccccc23)c1 result="17.4 µM (active)"
compound=CCN(CCC#N)c1ccc(N=Nc2ccc([N+](=O)[O-])cc2)cc1 result=inactive
compound=CN(c1nccc(=O)[nH]1)C1CCN(c2nc3ccccc3n2Cc2ccc(F)cc2)CC1 result=inactive
compound=CC=Cc1ccc(OC)c(OC)c1 result=inactive
compound=NC(=S)NNC(N)=S result=inactive
compound=COc1cc(Cl)c(OC)cc1N result="25 µM (active)"

---

- Read-out: CD38, CD38 (gene 952)
- Assay Remarks: BSK_SAg_CD38: BioMAP Diversity Plus: SAg Assay for CD38 Biomarker Activity (AID 2283087)
- Condition: primary human HUVEC with PBMC; actives raise or lower the signal
Active and inactive are the calls of the source. How the source made its calls: active means hit-call score of the fitted dose curve at least 0.9, where 1 is the maximum; inactive means score below 0.9.
Classes used: active, inactive

compound=CC1(C)CCC[C@]2(C)[C@H]3CCO[C@]3(C)CC[C@@H]12 assigned_class=inactive
compound="CCCCCCC(CO)CCCC (configuration not stated)" assigned_class=inactive
compound=CCCCCC(C=O)=Cc1ccccc1 assigned_class=inactive
compound=O=C1c2ccccc2C(=O)c2c(O)ccc(O)c21 assigned_class=active
compound=O=CN1CCOCC1 assigned_class=inactive
compound=c1ccc(CCc2ccccc2)cc1 assigned_class=active
compound=C=C(C)C(=O)OCCOCCOCCOC(=O)C(=C)C assigned_class=inactive

---

- System Under Test: Luciferin 4-monooxygenase (Photinus pyralis) (UniProt P08659)
- Sequence (P08659 whole entry, looked up): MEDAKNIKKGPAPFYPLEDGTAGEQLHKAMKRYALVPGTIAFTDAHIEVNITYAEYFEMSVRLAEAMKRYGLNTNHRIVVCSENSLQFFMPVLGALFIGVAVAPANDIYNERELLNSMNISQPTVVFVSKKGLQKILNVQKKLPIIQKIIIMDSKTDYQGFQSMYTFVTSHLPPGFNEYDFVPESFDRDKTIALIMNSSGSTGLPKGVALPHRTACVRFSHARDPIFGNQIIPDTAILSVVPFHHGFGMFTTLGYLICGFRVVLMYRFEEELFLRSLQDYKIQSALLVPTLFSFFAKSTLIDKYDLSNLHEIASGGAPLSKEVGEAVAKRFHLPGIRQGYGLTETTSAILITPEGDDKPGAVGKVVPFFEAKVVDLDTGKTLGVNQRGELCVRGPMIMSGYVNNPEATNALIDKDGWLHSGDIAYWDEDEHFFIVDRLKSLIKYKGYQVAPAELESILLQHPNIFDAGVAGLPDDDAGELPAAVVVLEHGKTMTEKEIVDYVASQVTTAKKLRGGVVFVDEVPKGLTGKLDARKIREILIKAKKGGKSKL
- Assay Remarks: CCTE_Simmons_QuantiLum_inhib_2: CCTE's Firefly Luciferase Inhibition Assay, Simmons Lab (AID 2283767)
Records with an inconclusive call do not appear. Active and inactive are the calls of the source. The calls were made as follows: active = hit-call score of the fitted dose curve at least 0.9, where 1 is the maximum; inconclusive = response in the unintended direction; inactive = score below 0.9.
Outcome codes: active, inactive

compound=O=C(Nc1ccc2c(O)c(N=Nc3ccc(N=Nc4ccc(S(=O)(=O)O)cc4)cc3)c(S(=O)(=O)O)cc2c1)c1ccccc1 system_under_test="Luciferin 4-monooxygenase (Photinus pyralis) (UniProt P08659)" assigned_class=active
compound=CSCCC=O system_under_test="Luciferin 4-monooxygenase (Photinus pyralis) (UniProt P08659)" assigned_class=inactive
compound=Cc1cc(C)nc(NS(=O)(=O)c2ccc(N)cc2)n1 system_under_test="Luciferin 4-monooxygenase (Photinus pyralis) (UniProt P08659)" assigned_class=inactive
compound=O=C(O)CCCCCCCCC(=O)O system_under_test="Luciferin 4-monooxygenase (Photinus pyralis) (UniProt P08659)" assigned_class=inactive
compound=C=C1CC[C@H](O)C/C1=C/C=C1\CCC[C@]2(C)[C@@H]([C@H](C)/C=C/[C@H](C)C(C)C)CC[C@@H]12 system_under_test="Luciferin 4-monooxygenase (Photinus pyralis) (UniProt P08659)" assigned_class=inactive
compound=CCOc1ccccc1O system_under_test="Luciferin 4-monooxygenase (Photinus pyralis) (UniProt P08659)" assigned_class=inactive
compound=CCc1cc(Cc2cc(CC)cc(C(C)(C)C)c2O)c(O)c(C(C)(C)C)c1 system_under_test="Luciferin 4-monooxygenase (Photinus pyralis) (UniProt P08659)" assigned_class=inactive
compound=O=C1OC[C@H](Cc2cccc(O)c2)[C@H]1Cc1cccc(O)c1 system_under_test="Luciferin 4-monooxygenase (Photinus pyralis) (UniProt P08659)" assigned_class=inactive
compound=CN(C)c1cccc(O)c1 system_under_test="Luciferin 4-monooxygenase (Photinus pyralis) (UniProt P08659)" assigned_class=active
compound=CC(C)CCCCCCCCCCCCCCC(=O)O system_under_test="Luciferin 4-monooxygenase (Photinus pyralis) (UniProt P08659)" assigned_class=inactive
compound=O=C(O)c1ccc(O)cc1 system_under_test="Luciferin 4-monooxygenase (Photinus pyralis) (UniProt P08659)" assigned_class=inactive
compound=CCOC(=O)c1ccc(N)cc1 system_under_test="Luciferin 4-monooxygenase (Photinus pyralis) (UniProt P08659)" assigned_class=inactive
compound=CCc1cc(C(C)(C)C)c(O)c(C(C)(C)C)c1 system_under_test="Luciferin 4-monooxygenase (Photinus pyralis) (UniProt P08659)" assigned_class=inactive
compound="CCCCC(CC)COC(=O)c1ccc(O)cc1 (stereo unspecified)" system_under_test="Luciferin 4-monooxygenase (Photinus pyralis) (UniProt P08659)" assigned_class=inactive
compound=COc1ccccc1N=Nc1c(S(=O)(=O)O)cc2cc(S(=O)(=O)O)cc(NC(C)=O)c2c1O system_under_test="Luciferin 4-monooxygenase (Photinus pyralis) (UniProt P08659)" assigned_class=active
compound=Cc1cc(S(=O)(=O)O)ccc1N=Nc1c(O)ccc2ccccc12 system_under_test="Luciferin 4-monooxygenase (Photinus pyralis) (UniProt P08659)" assigned_class=active

---

- Read-out: Interleukin-6 (IL6), IL6 (gene 3569)
- Assay Remarks: BSK_CASM3C_IL6: BioMAP Diversity Plus: CASM3C Assay for Interleukin-6 (IL6) Biomarker Activity for (AID 2283040)
- Condition: primary human coronary artery smooth muscle cells; actives raise or lower the signal
The source made the active and inactive calls. Rule for the calls: active = hit-call score of the fitted dose curve at least 0.9, where 1 is the maximum; inactive = score below 0.9.
Property Measured: AC50

compound=Cc1cc(CCC(=O)OCCOCCOCCOC(=O)CCc2cc(C)c(O)c(C(C)(C)C)c2)cc(C(C)(C)C)c1O result=inactive
compound=CCCCOC(=O)CCCCCCCC(=O)OCCCC result=inactive
compound="CCCCCCC(CO)CCCC (stereo unspecified)" result=inactive
compound=O=C(Nc1ccc2c(O)c(N=Nc3ccc(N=Nc4ccc(S(=O)(=O)O)cc4)cc3)c(S(=O)(=O)O)cc2c1)c1ccccc1 result=inactive
compound=C[C@@H]1CCN(C(=O)[C@H](CCCN=C(N)N)NS(=O)(=O)c2cccc3c2NC[C@H](C)C3)[C@@H](C(=O)O)C1 result=inactive
compound=CCCCCCCCCCCCCCCC(=O)OC/C=C(C)/C=C/C=C(C)/C=C/C1=C(C)CCCC1(C)C result=inactive
compound=Oc1c(Cl)cc(Cl)c(Cl)c1Cc1c(O)c(Cl)cc(Cl)c1Cl result="7.83 µM (active)"
compound=CCCCN(CCCC)C(=O)N(CCCC)CCCC result="20 µM (active)"
compound=C=C(C)C(=O)OCC(CC)(COC(=O)C(=C)C)COC(=O)C(=C)C result=inactive
compound=C=C(C)C(=O)OCCOCCOCCOC(=O)C(=C)C result=inactive
compound=COc1cc(Cl)c(OC)cc1N result=inactive
compound=c1ccc2cc(Nc3ccc(Nc4ccc5ccccc5c4)cc3)ccc2c1 result=inactive
compound=IC(I)I result=inactive
compound=CN(C)C(=S)SC(=S)N(C)C result=inactive
compound=COc1ccc(CCN2CCC(Nc3nc4ccccc4n3Cc3ccc(F)cc3)CC2)cc1 result=inactive
compound=CC(C)(N=C=O)c1cccc(C(C)(C)N=C=O)c1 result=inactive
compound=CC(=O)Nc1ccc(C(=O)CCl)cc1 result="10.6 µM (active)"
compound=C=C(C)[C@H]1CC=C(C)C(=O)C1 result=inactive
compound=O=C1c2ccccc2C(=O)c2c(O)ccc(O)c21 result=inactive
compound=CC(=O)c1c(C)c([N+](=O)[O-])c(C(C)(C)C)c([N+](=O)[O-])c1C result=inactive
compound="C1=CC2C3C=CC(C3)C2C1 (stereo unspecified)" result=inactive
compound=CC=Cc1ccc(OCC)c(O)c1 result=inactive
compound=CS(=O)(=O)OCCCCOS(C)(=O)=O result=inactive
compound=O=CN1CCOCC1 result=inactive
compound=CC(C)(C)CC(C)(C)c1ccc(OCCOCC[N+](C)(C)Cc2ccccc2)cc1 result="8 µM (active)"
compound=CN(C)C(=O)Nc1ccc(Oc2ccc(Cl)cc2)cc1 result="0.0427 µM (active)"
compound=O=C1OC2(c3ccccc31)c1ccc(O)c(Br)c1Oc1c2ccc(O)c1Br result=inactive
compound=CC1(C)C2=CCCC(C)(C)[C@]23CC[C@H]1C3 result="30.2 µM (active)"
compound=CSCCC=O result=inactive
compound=C=C(C)C(=O)OCCOCCOCCOCCOC(=O)C(=C)C result=inactive
compound=CCCCCC(C=O)=Cc1ccccc1 result="32 µM (active)"

Origin of values: PubChem BioAssay (EPA / NIEHS)
